Reported inhibition at 50 µM by item:
EXPERIMENTAL_TARGET: PAI-1 (Homo sapiens, UniProt P05121)
Sequence (P05121 24-402): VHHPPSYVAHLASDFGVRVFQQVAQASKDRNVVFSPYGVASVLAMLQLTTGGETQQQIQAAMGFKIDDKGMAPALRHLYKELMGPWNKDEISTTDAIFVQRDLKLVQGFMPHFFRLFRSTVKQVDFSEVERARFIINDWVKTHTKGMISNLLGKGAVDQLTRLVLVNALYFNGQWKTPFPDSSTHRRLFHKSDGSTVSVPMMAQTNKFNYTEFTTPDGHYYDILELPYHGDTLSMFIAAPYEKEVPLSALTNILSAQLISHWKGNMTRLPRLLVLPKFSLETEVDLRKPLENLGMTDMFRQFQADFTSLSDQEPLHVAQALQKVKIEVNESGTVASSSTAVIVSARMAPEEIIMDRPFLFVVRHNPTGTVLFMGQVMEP
ASSAY: biochemical
EXPERIMENTAL_PARAMETERS: 50 μM (third part of Table 1); read-out: Degree of inhibition in PAI chromogenic substrate assay
Counter-ions that a name gives are not always drawn.
Response body: numeric value in %, unit text excluded.

Worked cases, answers included:
>  <MOLECULE>
CN(C)CCSCc1ccc(/C=c2\[nH]c(=O)/c(=C/c3ccccc3Br)[nH]c2=O)cc1 [Compound 5080.HCl]

>  <EXPERIMENTAL_TARGET>
PAI-1 (Homo sapiens, UniProt P05121)

>  <inhibition at 50 µM / %>
48

$$$$
>  <MOLECULE>
CN(C)CCCOc1ccc(/C=c2\[nH]c(=O)/c(=C/c3ccc(N(C)C)cc3)[nH]c2=O)cc1 [Compound 5068.HCl]

>  <EXPERIMENTAL_TARGET>
PAI-1 (Homo sapiens, UniProt P05121)

>  <inhibition at 50 µM / %>
76

$$$$
>  <MOLECULE>
CN(C)CCSCc1ccc(/C=c2\[nH]c(=O)/c(=C/c3ccccc3)[nH]c2=O)cc1

>  <EXPERIMENTAL_TARGET>
PAI-1 (Homo sapiens, UniProt P05121)

>  <inhibition at 50 µM / %>
68

$$$$

q: Could you tell me which inhibition at 50 µM is on file for CN(C)CCOCc1ccc(/C=c2\[nH]c(=O)/c(=C/c3ccccc3Br)[nH]c2=O)cc1 [Compound 5070.HCl] ?
a: 6

q: # iterate: CN(C)CCCOc1ccc(/C=c2\[nH]c(=O)/c(=C/c3ccccc3Br)[nH]c2=O)cc1 [Compound 5060.HCl]
a: 65

q: # iterate: CCN(CC)CCOc1ccc(/C=c2\[nH]c(=O)/c(=C/c3ccccc3)[nH]c2=O)cc1 [Compound 5065.HCl]
a: 80
